- Tested on: MM1.S
- assay method text: 7 day pretreatment + 4-day co-treatment combination model (Cell Titer Glo)
- measurement setup: Homo sapiens, MM1.S, 96 h, read-out: 4-day IC50
pIC50: −log10 of the molar value.
value type: pIC50

Sample answers from the record:
- entry smiles: "C[C@]12C=CC(=O)C=C1CC[C@@H]1[C@@H]2[C@@H](O)C[C@@]2(C)[C@H]1CC[C@]2(O)C(=O)CO"
  pIC50: 6.80
- entry smiles: "N[C@@H](Cc1ccc(N(CCCl)CCCl)cc1)C(=O)O"
  pIC50: 5.53
- entry smiles: "CC[C@]1(O)C[C@H]2CN(CCc3c([nH]c4ccccc34)[C@@](C(=O)OC)(c3cc4c(cc3OC)N(C=O)[C@H]3[C@@](O)(C(=O)OC)[C@H](OC(C)=O)[C@]5(CC)C=CCN6CC[C@]43[C@@H]65)C2)C1"
  pIC50: 9.00
- entry smiles: "Cc1[nH]c2ccccc2c1CCNCc1ccc(/C=C/C(=O)NO)cc1"
  pIC50: 8.24

A. COc1cccc2c1C(=O)c1c(O)c3c(c(O)c1C2=O)C[C@@](O)(C(=O)CO)C[C@@H]3O[C@H]1C[C@H](N)[C@H](O)[C@H](C)O1
B. CC(C)C[C@H](NC(=O)[C@H](Cc1ccccc1)NC(=O)c1cnccn1)B(O)O
// query Consider entries A and B . Which has the numerically lower pIC50? Record your answer as the label of the chosen record.
// result A

---

- Tested on: U266
- assay method text: 7 day pretreatment + 4-day co-treatment combination model (Cell Titer Glo)
- measurement setup: Homo sapiens, U-266, 96 h, read-out: 4-day IC50
value type: IC50 (nM)

I. COc1cc([C@@H]2c3cc4c(cc3[C@@H](O[C@@H]3O[C@@H]5CO[C@@H](C)O[C@H]5[C@H](O)[C@H]3O)[C@H]3COC(=O)[C@H]23)OCO4)cc(OC)c1O [Etoposide, etoposide]
II. Cc1[nH]c2ccccc2c1CCNCc1ccc(/C=C/C(=O)NO)cc1
III. CC(C)C[C@H](NC(=O)[C@H](Cc1ccccc1)NC(=O)c1cnccn1)B(O)O
IV. CC(C)C[C@H](NC(=O)[C@H](CCc1ccccc1)NC(=O)CN1CCOCC1)C(=O)N[C@@H](Cc1ccccc1)C(=O)N[C@@H](CC(C)C)C(=O)[C@@]1(C)CO1
V. COc1cccc2c1C(=O)c1c(O)c3c(c(O)c1C2=O)C[C@@](O)(C(=O)CO)C[C@@H]3O[C@H]1C[C@H](N)[C@H](O)[C@H](C)O1
// query Descending sort on IC50 required. Output spec: a listing of the labels in the requested order.
// result I, V, II, IV, III
(I: 787 nM, V: 50 nM, II: 5 nM, IV: 3 nM, III: 2 nM)

---

- System: MM1.S
- assay method text: 7 day pretreatment + 4-day co-treatment combination model (Cell Titer Glo)
- measurement setup: read-out: 4-day IC50; single agent; MM1.S t(14; 16)
value type: IC50 (nM)
All answers are understood in nM, so give the number only.

// query Entry under review: CC(C)C[C@H](NC(=O)CNC(=O)c1cc(Cl)ccc1Cl)B(O)O . Reported IC50?
// result 12

---

- Test system: RPMI-8226
- assay method text: 7-day co-treatment combination model (Cell Titer Glo)
- measurement setup: second agent + tazemetostat, 7 day co-treatment
value type: Loewe volume
Number only, no unit.

Example entries and their recorded answers appear below.
- compound: "Cc1nc2cccc(N)c2c(=O)n1C1CCC(=O)NC1=O (stereo not shown)"
  measurement target: "RPMI-8226"
  readout value: 2.29
- compound: "Nc1cccc2c1C(=O)N(C1CCC(=O)NC1=O)C2=O (stereo not shown) [Pomalidomide, pomalidomide]"
  measurement target: "RPMI-8226"
  readout value: 3.9
- compound: "C[C@@H]1C[C@H]2[C@@H]3CCC4=CC(=O)C=C[C@]4(C)[C@@]3(F)[C@@H](O)C[C@]2(C)[C@@]1(O)C(=O)CO"
  measurement target: "RPMI-8226"
  readout value: 1.73

// query Using the record for Cc1[nH]c2ccccc2c1CCNCc1ccc(/C=C/C(=O)NO)cc1 , report its Loewe volume.
// result 2.24

---

- Tested on: U266
value type: IC50

// query Under U266: IC50 value of C[C@@H]1C[C@H]2[C@@H]3CCC4=CC(=O)C=C[C@]4(C)[C@@]3(F)[C@@H](O)C[C@]2(C)[C@@]1(O)C(=O)CO ?
// result > 10 µM

---

- Test system: MM1.S
- assay method text: 7 day pretreatment + 4-day co-treatment combination model (Cell Titer Glo)
- measurement setup: Homo sapiens, MM1.S, 96 h, read-out: 4-day IC50
pIC50: −log10 of the molar value.
value type: pIC50

Reference set (4 entries):
- compound: "Nc1cccc2c1CN(C1CCC(=O)NC1=O)C2=O (stereo not drawn) [Lenalidomide, lenalidomide]"
  readout value: 6.52
- compound: "COc1cc([C@@H]2c3cc4c(cc3[C@@H](O[C@@H]3O[C@@H]5CO[C@@H](C)O[C@H]5[C@H](O)[C@H]3O)[C@H]3COC(=O)[C@H]23)OCO4)cc(OC)c1O [Etoposide, etoposide]"
  readout value: 6.91
- compound: "O=P1(N(CCCl)CCCl)NCCCO1 (stereo not drawn) [Cyclophosphomide, cyclophosphamide]"
  readout value: 5.93
- compound: "CC(C)C[C@H](NC(=O)[C@H](CCc1ccccc1)NC(=O)CN1CCOCC1)C(=O)N[C@@H](Cc1ccccc1)C(=O)N[C@@H](CC(C)C)C(=O)[C@@]1(C)CO1"
  readout value: 8.97

A. C[C@@H]1C[C@H]2[C@@H]3CCC4=CC(=O)C=C[C@]4(C)[C@@]3(F)[C@@H](O)C[C@]2(C)[C@@]1(O)C(=O)CO
B. Nc1cccc2c1C(=O)N(C1CCC(=O)NC1=O)C2=O (stereo not drawn) [Pomalidomide, pomalidomide]
// query # min-compare on pIC50 between A and B Give the label under which the chosen entry appears.
// result B

---

- Test system: MOLP-8
- assay method text: 7-day co-treatment combination model (Cell Titer Glo)
- measurement setup: second agent + tazemetostat; 7-day co-treatment; MOLP-8 t(11;14)

- compound: "Nc1cccc2c1C(=O)N(C1CCC(=O)NC1=O)C2=O (stereo not shown) [Pomalidomide, pomalidomide]"
  combinatorial effect by Loewe volumes: "S (Synergy)"
- compound: "C[C@@H]1C[C@H]2[C@@H]3CCC4=CC(=O)C=C[C@]4(C)[C@@]3(F)[C@@H](O)C[C@]2(C)[C@@]1(O)C(=O)CO"
  combinatorial effect by Loewe volumes: "S (Synergy)"
- compound: "Cc1[nH]c2ccccc2c1CCNCc1ccc(/C=C/C(=O)NO)cc1"
  combinatorial effect by Loewe volumes: "S (Synergy)"

---

- Test system: L-363
- assay method text: 7 day pretreatment + 4-day co-treatment combination model (Cell Titer Glo)
- measurement setup: Homo sapiens, L-363, 96 h, read-out: 4-day IC50
# maps each entry to its IC50
Give your result in nM as a bare value.

Some compounds with recorded IC50:
- compound: "Nc1cccc2c1CN(C1CCC(=O)NC1=O)C2=O (centres unmarked) [Lenalidomide, lenalidomide]"
  measurement target: "L-363"
  readout value: 379
- compound: "C[C@@H]1C[C@H]2[C@@H]3CCC4=CC(=O)C=C[C@]4(C)[C@@]3(F)[C@@H](O)C[C@]2(C)[C@@]1(O)C(=O)CO"
  measurement target: "L-363"
  readout value: 7
- compound: "CC[C@]1(O)C[C@H]2CN(CCc3c([nH]c4ccccc34)[C@@](C(=O)OC)(c3cc4c(cc3OC)N(C=O)[C@H]3[C@@](O)(C(=O)OC)[C@H](OC(C)=O)[C@]5(CC)C=CCN6CC[C@]43[C@@H]65)C2)C1"
  measurement target: "L-363"
  readout value: 1
- compound: "Cc1[nH]c2ccccc2c1CCNCc1ccc(/C=C/C(=O)NO)cc1"
  measurement target: "L-363"
  readout value: 3
- compound: "CC(C)C[C@H](NC(=O)[C@H](CCc1ccccc1)NC(=O)CN1CCOCC1)C(=O)N[C@@H](Cc1ccccc1)C(=O)N[C@@H](CC(C)C)C(=O)[C@@]1(C)CO1"
  measurement target: "L-363"
  readout value: 2

// query Record request: IC50 value, item Nc1cccc2c1C(=O)N(C1CCC(=O)NC1=O)C2=O (centres unmarked) [Pomalidomide, pomalidomide]
// result 69

// query Given the compound COc1cccc2c1C(=O)c1c(O)c3c(c(O)c1C2=O)C[C@@](O)(C(=O)CO)C[C@@H]3O[C@H]1C[C@H](N)[C@H](O)[C@H](C)O1 , what is its reported IC50?
// result 10

// query # get_value(readout='IC50', item= C[C@]12C=CC(=O)C=C1CC[C@@H]1[C@@H]2[C@@H](O)C[C@@]2(C)[C@H]1CC[C@]2(O)C(=O)CO )
// result 100

// query Recorded IC50 of COc1cc([C@@H]2c3cc4c(cc3[C@@H](O[C@@H]3O[C@@H]5CO[C@@H](C)O[C@H]5[C@H](O)[C@H]3O)[C@H]3COC(=O)[C@H]23)OCO4)cc(OC)c1O [Etoposide, etoposide] , please.
// result 140

// query Requested field: IC50. Item: CC(C)C[C@H](NC(=O)[C@H](Cc1ccccc1)NC(=O)c1cnccn1)B(O)O
// result 5
